Hey, just so you know, these numbers are from patent US9682141B2.

UniProt P42338: reported pIC50 for various compounds.
Sequence (P42338 whole entry): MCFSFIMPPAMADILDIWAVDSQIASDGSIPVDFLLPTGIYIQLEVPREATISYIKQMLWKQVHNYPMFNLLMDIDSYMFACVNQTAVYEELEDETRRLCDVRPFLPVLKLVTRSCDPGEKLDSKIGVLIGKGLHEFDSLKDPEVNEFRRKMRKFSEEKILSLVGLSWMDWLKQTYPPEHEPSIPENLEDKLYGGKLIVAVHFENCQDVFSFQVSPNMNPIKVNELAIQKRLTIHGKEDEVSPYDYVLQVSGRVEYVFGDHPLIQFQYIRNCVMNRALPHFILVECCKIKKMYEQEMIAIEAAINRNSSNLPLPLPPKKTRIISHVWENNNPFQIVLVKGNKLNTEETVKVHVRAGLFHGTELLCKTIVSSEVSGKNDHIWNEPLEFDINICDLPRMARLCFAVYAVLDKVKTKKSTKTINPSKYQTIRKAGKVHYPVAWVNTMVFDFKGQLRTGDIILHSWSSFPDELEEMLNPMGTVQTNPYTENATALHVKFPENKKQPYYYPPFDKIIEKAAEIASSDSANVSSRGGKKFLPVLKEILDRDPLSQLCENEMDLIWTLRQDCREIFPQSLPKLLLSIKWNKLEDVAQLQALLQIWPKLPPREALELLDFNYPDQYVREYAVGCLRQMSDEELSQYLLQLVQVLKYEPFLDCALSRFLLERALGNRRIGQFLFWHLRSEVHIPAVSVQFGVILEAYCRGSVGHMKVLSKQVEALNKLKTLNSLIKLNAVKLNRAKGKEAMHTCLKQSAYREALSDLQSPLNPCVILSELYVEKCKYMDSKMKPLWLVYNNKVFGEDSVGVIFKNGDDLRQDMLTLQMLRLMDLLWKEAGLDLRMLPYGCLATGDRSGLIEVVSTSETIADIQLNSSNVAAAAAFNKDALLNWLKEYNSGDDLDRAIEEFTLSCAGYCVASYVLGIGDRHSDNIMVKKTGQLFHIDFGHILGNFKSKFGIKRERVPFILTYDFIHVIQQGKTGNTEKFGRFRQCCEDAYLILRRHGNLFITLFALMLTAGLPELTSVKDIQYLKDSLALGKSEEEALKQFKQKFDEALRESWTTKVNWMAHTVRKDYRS
Sequence (P27986 whole entry partner): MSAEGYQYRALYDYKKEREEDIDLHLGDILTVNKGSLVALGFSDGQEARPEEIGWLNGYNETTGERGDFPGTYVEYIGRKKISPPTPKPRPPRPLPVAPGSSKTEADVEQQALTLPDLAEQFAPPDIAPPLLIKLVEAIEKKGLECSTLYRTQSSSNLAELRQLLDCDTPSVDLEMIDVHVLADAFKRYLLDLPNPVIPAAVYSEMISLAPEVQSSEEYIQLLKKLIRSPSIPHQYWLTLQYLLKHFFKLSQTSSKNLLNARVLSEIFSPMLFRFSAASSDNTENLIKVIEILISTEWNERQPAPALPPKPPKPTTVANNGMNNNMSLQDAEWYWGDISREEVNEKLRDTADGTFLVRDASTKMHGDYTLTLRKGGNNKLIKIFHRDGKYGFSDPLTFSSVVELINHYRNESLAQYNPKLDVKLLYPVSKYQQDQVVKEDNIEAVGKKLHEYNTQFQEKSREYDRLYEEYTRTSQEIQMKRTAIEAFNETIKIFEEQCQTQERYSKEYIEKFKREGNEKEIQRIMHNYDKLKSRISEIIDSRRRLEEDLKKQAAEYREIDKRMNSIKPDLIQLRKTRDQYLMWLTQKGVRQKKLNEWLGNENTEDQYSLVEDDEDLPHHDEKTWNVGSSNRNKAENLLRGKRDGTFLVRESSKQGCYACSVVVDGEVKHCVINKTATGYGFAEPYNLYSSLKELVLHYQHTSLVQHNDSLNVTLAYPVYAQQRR
pIC50: −log10 of the molar value.

| compound | pIC50 |
| --- | --- |
| CN1CCN(n2cnc3ccc(-c4ccc5oc(N)nc5c4)cc3c2=O)CC1 | < 5.00 |
| Nc1nc2cc(-c3ccc4ncc(-c5cccnc5)cc4n3)ccc2o1 | > 5.00 |
| Nc1nc2cc(-c3ccc4ncc(N5CC(N6CCOCC6)C5)nc4c3)c(Cl)cc2o1 | > 5.00 |
| Nc1nc2cc(-c3ccc4ncc(N5CC(n6ccnc6)C5)nc4c3)ccc2o1 | > 6.00 |
| Nc1nc2cc(-c3ccc4ncc(N5CCN(C(=O)C6(N)CC6)CC5)nc4c3)ccc2o1 | < 5.00 |
| CN1CCN(c2cnc3ccc(-c4ccc5nc(N)sc5c4)cc3n2)CC1 | > 7.00 |
| CCN1CCC(n2cnc3ccc(-c4ccc5oc(N)nc5c4)cc3c2=O)CC1 | > 5.00 |
| CC(=O)N1CCN(C2CN(c3cnc4ccc(-c5ccc6oc(N)nc6c5)cc4n3)C2)CC1 | > 5.00 |
| Nc1nc2cc(-c3ccc4ncc(N5CC(N6CCOCC6)C5)nc4c3)cc(F)c2o1 | > 6.00 |
| Nc1nc2cc(-c3ccc4ncc(-c5cccnc5)nc4c3)ccc2o1 | < 5.00 |
| C[C@@H]1CN(C2CN(c3cnc4ccc(-c5ccc6oc(N)nc6c5)nc4n3)C2)CCN1C | < 5.00 |
| Nc1n[nH]c2c(-c3ccc4ncc(C(=O)N5CCOCC5)n4c3)cccc12 | < 5.00 |
| Nc1ncnc2ccc(-c3ccc4nccc(-c5ccncc5)c4c3)cc12 | < 5.00 |
| Nc1nc2cc(-c3ccc4ncc(C(=O)N5CCC(F)(F)C5)n4c3)ccc2o1 | < 5.00 |
| CC(C)(C)N1CCN(C(=O)c2cnc3ccc(-c4ccc5oc(N)nc5c4)cn23)CC1 | > 5.00 |
| CN(C)CC(=O)N1CCN(c2cnc3ccc(-c4ccc5oc(N)nc5c4)cc3n2)CC1 [drawing 329] | > 6.00 |
| O=C(c1cnc2ccc(-c3ccc4c(Nc5ccccc5)noc4c3)cn12)N1CCOCC1 | < 5.00 |
| C[C@H]1CN(c2cnc3ccc(-c4ccc5oc(N)nc5c4)nc3n2)CCN1 | > 7.00 |
| Nc1nc2cc(-c3ccc4ncc(C(=O)N5CC6(C5)OCCO6)n4c3)ccc2o1 | > 5.00 |
| Nc1nc2cc(-c3ccc4ncc(N5CC(C(=O)N6CCN(C7CC7)CC6)C5)nc4c3)ccc2o1 | > 5.00 |
| Nc1nc2cc(-c3ccc4ncc(N5C6CCC5COC6)nc4n3)ccc2o1 | < 5.00 |
| CC(=O)Nc1cn2cc(-c3ccc4oc(N)nc4c3)ccc2n1 | > 6.00 |
| Nc1nc2cc(-c3ccc4ncc(N5CCC(O)CC5)nc4n3)ccc2o1 | > 5.00 |
| Nc1nc2cccc(-c3ccc4ncc(C(=O)N5CCOCC5)n4c3)c2s1 | < 5.00 |
| C[C@H]1CCCN1C(=O)c1cnc2ccc(-c3ccc4oc(N)nc4c3)cn12 | < 5.00 |
| Nc1nc2cc(-c3ccc4ncc(N5CC(N6CCOCC6)C5)cc4n3)ccc2o1 | > 5.00 |
| CNC(=O)C1CN(c2cnc3ccc(-c4ccc5oc(N)nc5c4)cc3n2)C1 | > 7.00 |
| C[C@@H](N)C(=O)N1CCN(c2cnc3ccc(-c4ccc5oc(N)nc5c4)cc3n2)CC1 | > 6.00 |
| Cc1nc2ccc(-c3ccc4oc(N)nc4c3)nn2c1-c1ccncc1 | > 6.00 |
| Nc1nc2cc(-c3ccc4ncc(C(=O)N5CCN(CC6CC6)CC5)n4c3)ccc2o1 | > 5.00 |
| Nc1nc2cc(-c3ccc4ncn(CCCN5CCCC5)c(=O)c4c3)ccc2o1 | > 5.00 |
| CN1CCN(c2nc3cc(-c4ccc5oc(N)nc5c4)ccc3c(=O)n2C)CC1 | < 5.00 |
| COc1ccc(CNc2n[nH]c3cc(-c4ccc5oc(N)nc5c4)ccc23)cc1 | < 5.00 |
| CC(C)N1CCN(c2cnc3ccc(-c4ccc5oc(N)nc5c4)nc3n2)CC1 | > 6.00 |
| Nc1ncc2cc(-c3ccc4nccc(-c5ccncc5)c4c3)ccc2n1 | > 5.00 |

* * *

pIC50: −log10 of the molar value.
PI3K δ (Homo sapiens (Human), UniProt O00329): reported pIC50 for various compounds.
Sequence (O00329 whole entry, one chain of several): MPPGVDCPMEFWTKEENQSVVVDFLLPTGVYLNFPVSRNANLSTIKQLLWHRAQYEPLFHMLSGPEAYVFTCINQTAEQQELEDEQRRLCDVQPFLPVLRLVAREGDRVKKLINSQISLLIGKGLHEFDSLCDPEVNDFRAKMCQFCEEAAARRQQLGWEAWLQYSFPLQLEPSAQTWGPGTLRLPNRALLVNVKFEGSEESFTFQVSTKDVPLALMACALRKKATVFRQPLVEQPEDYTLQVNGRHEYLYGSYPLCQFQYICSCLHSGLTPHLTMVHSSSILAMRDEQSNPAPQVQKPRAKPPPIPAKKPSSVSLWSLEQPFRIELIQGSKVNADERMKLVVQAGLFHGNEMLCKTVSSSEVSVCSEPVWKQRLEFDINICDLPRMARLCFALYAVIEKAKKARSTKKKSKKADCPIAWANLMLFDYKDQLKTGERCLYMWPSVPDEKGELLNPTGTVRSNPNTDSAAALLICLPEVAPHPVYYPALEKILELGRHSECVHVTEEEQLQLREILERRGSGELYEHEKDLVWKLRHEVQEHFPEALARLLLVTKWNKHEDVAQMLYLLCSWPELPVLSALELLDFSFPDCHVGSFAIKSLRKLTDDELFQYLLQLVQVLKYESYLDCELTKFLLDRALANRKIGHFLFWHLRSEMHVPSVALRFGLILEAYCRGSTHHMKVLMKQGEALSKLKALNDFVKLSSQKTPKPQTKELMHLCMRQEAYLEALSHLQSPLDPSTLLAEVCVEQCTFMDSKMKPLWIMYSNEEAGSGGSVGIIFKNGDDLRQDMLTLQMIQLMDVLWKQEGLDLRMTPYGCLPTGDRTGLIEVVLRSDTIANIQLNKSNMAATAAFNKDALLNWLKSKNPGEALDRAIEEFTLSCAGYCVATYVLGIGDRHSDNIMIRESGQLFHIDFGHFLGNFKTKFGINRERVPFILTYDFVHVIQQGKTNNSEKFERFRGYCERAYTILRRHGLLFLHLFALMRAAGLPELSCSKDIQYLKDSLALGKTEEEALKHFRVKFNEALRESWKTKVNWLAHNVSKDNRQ

| compound | pIC50 |
| --- | --- |
| C[C@H](N)C(=O)N1CCN(c2cnc3ccc(-c4ccc5oc(N)nc5c4)nc3n2)CC1 | > 7.00 |
| CN(C)CC(=O)N1CCN(c2cnc3ccc(-c4ccc5oc(N)nc5c4)cc3n2)CC1 [drawing 329] | > 6.00 |
| Nc1nc2cc(-c3ccc4ncc(C(=O)N5CCC(N6CCOCC6)CC5)n4c3)ccc2o1 | > 5.00 |
| CN1CCN(C(=O)c2cnc3ccc(-c4ccc5oc(N)nc5c4)cn23)CC1 [Compound 44] | > 5.00 |
| Nc1nc2cc(-c3ccc4ncc(N5C6CCC5COC6)nc4n3)ccc2o1 | < 5.00 |

* * *

# targetEntity: PI3K γ (Homo sapiens (Human), UniProt P48736)
# Sequence (P48736 whole entry): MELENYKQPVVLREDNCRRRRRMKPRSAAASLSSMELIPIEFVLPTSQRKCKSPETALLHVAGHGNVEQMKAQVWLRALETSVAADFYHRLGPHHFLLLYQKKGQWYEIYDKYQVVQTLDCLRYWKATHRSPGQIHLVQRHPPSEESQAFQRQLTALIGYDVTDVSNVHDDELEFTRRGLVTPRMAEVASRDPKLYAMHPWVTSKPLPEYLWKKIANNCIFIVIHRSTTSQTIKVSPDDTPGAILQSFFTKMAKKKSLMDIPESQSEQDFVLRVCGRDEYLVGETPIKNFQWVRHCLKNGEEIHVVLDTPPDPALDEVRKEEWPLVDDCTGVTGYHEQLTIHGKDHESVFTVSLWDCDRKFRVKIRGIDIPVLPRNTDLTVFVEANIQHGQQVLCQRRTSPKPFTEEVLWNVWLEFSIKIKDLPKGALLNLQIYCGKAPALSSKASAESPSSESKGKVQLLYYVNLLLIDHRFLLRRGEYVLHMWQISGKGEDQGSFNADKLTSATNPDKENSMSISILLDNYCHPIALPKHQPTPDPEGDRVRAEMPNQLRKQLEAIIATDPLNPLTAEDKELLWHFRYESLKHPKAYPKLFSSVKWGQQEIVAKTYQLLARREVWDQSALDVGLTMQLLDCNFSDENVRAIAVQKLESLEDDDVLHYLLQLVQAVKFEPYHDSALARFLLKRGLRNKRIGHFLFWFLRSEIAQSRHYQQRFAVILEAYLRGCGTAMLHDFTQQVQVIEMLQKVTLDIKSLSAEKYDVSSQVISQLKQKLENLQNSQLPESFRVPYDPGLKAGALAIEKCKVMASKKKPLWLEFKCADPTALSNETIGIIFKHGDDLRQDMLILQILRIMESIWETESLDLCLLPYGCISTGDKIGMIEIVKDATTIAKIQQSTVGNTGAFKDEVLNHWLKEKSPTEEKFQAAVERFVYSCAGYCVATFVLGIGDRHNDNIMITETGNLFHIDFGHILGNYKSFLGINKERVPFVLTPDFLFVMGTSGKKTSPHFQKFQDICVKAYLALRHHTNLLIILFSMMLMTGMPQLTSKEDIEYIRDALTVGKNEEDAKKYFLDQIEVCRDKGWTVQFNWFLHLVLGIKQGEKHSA
# assayNotes: PI 3-Kinase (human) HTRF assay, p110γ
# Type: biochemical
# setupConditions: read-out: PI3K γ IC50
The compounds listed here are annotated with their IC50.

| compound | IC50 |
| --- | --- |
| Nc1nc2cc(-c3ccc4ncc(=O)[nH]c4c3)ccc2o1 | < 100 nM |
| C[C@@H]1CN(C2CN(c3cnc4ccc(-c5ccc6oc(N)nc6c5)nc4n3)C2)CCN1C | < 10000 nM |
| CN1CCC(Nc2cnc3ccc(-c4ccc5oc(N)nc5c4)cc3n2)CC1 | < 1000 nM |
| Nc1nc2cc(-c3ccc4ncn(C5CCNCC5)c(=O)c4c3)ccc2o1 | < 10000 nM |
| CN1CCC(N(C)c2ncnc3ccc(-c4ccc5oc(N)nc5c4)cc23)CC1 | < 100 nM |
| CC(C)N1CCC(n2cnc3ccc(-c4ccc5oc(N)nc5c4)cc3c2=O)CC1 | < 10000 nM |
| Nc1nc2cc(-c3ccc4ncc(-c5ccc6nc(N)oc6c5)n4c3)ccc2o1 | < 100 nM |

* * *

PI3K α (Homo sapiens (Human), UniProt P42336): reported IC50 for various compounds.
Sequence (P42336 whole entry, one chain of several): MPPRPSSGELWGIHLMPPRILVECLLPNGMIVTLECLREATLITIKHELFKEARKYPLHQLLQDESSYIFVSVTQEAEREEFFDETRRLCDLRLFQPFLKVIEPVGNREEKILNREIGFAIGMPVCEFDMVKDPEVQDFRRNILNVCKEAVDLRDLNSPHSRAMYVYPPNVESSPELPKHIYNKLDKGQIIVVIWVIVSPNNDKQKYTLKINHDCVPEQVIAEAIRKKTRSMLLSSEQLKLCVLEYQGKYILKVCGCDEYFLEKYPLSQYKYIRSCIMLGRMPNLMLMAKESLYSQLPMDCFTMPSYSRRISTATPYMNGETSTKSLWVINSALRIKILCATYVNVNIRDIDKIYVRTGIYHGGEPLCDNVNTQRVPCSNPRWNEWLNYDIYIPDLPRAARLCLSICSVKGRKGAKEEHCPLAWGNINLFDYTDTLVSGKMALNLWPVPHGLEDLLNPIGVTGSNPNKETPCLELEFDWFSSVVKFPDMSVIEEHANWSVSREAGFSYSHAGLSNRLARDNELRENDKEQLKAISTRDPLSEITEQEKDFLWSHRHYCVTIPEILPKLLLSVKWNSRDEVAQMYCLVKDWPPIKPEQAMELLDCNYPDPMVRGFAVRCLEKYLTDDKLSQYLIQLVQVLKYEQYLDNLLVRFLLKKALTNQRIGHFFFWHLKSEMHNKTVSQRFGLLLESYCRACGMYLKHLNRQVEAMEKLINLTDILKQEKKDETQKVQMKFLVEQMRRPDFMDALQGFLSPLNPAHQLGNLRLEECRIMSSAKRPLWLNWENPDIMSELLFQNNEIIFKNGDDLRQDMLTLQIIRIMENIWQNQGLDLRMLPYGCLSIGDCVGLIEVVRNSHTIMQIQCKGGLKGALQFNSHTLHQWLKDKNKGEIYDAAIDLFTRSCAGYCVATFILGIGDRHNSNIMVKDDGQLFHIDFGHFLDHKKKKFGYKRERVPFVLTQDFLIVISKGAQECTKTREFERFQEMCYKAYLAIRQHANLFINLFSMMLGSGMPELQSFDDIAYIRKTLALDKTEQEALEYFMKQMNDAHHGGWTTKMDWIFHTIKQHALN

| compound | IC50 |
| --- | --- |
| Cc1nc2ccc(-c3ccc4oc(N)nc4c3)cn2c1C(=O)N1CCN(C)CC1 | > 10 µM |
| Nc1nc2cc(-c3ccc4ncc(N5CCC(O)C5)nc4c3)ccc2o1 (stereo not drawn) | < 0.1 µM |
| Cc1c(-c2ccc3ncc(C(=O)N4CCOCC4)n3c2)ccc2oc(N)nc12 | > 10 µM |

* * *

The compounds listed here are annotated with their IC50.
# targetEntity: PI3K δ (Homo sapiens (Human), UniProt O00329)
# assayNotes: PI 3-Kinase (human) HTRF assay, p110δ/p85α
# Type: biochemical
propertyLabel: IC50

| compound | propertyLabel | readoutValue |
| --- | --- | --- |
| Nc1nc2cccc(-c3ccc4nccc(-c5ccncc5)c4c3)c2o1 | IC50 | < 1 µM |
| CC(=O)Nc1nc2ccc(-c3nc(N4CCOCC4)c4sc(CN5CCN(S(C)(=O)=O)CC5)cc4n3)cc2s1 | IC50 | > 10 µM |
| NCC(=O)N1CCN(c2cnc3ccc(-c4ccc5oc(N)nc5c4)cc3n2)CC1 | IC50 | < 1 µM |
| Nc1nc2cc(-c3ccc4ncc(N5CCOCC5)nc4c3)ccc2s1 | IC50 | > 10 µM |
| CN1CC(C(=O)N2CCN(c3cnc4ccc(-c5ccc6oc(N)nc6c5)cc4n3)CC2)C1 | IC50 | < 1 µM |
| Nc1nc2ccc(-c3ccc4ncn(C5CCOCC5)c(=O)c4c3)cc2o1 | IC50 | > 10 µM |

* * *

# targetEntity: UniProt P48736
# assayNotes: PI 3-Kinase (human) HTRF assay, p110γ
# Type: biochemical
# setupConditions: read-out: PI3K γ IC50
pIC50: −log10 of the molar value.
The compounds listed here are annotated with their pIC50.

| compound | pIC50 |
| --- | --- |
| CCOC(=O)N1CCN(c2cnc3ccc(-c4ccc5oc(N)nc5c4)cc3n2)CC1 | > 5.00 |
| C[C@@H]1COCCN1C1CN(c2cnc3ccc(-c4ccc5oc(N)nc5c4)nc3n2)C1 | > 5.00 |
| Cc1nccn1-c1cnc2ccc(-c3ccc4oc(N)nc4c3)cc2n1 | > 7.00 |

* * *

PI3K α (Homo sapiens (Human), UniProt P42336): reported IC50 for various compounds.

| compound | IC50 |
| --- | --- |
| Cc1cc(-c2ccc3oc(N)nc3c2)cc2c(C(=O)N3CCCC3)cnn12 | < 100 nM |
| Nc1nc2cc(-c3ccc4ncc(-c5ccc(N6CCOCC6)nc5)nc4c3)ccc2o1 | < 10000 nM |
| COc1ccc(-c2ccc3ncc(C(=O)N4CCOCC4)n3c2)cc1S(=O)(=O)Nc1ccccc1 | < 10000 nM |
| Nc1nc2cc(-c3ccc4nc(N)sc4c3)cc(F)c2o1 | < 100 nM |
| C[C@@H]1CN(C2CN(C(=O)c3cnc4ccc(-c5ccc6oc(N)nc6c5)cn34)C2)CCN1 | < 100 nM |
| CN1CCN(C2CN(C(=O)c3cnc4ccc(-c5ccc6oc(N)nc6c5)cn34)C2)CC1 | < 100 nM |
| Nc1nc2cc(-c3cc4nccc(-c5ccncc5)c4s3)ccc2o1 | < 10000 nM |
| CC(C)[C@H](N)C(=O)N1CCN(c2cnc3ccc(-c4ccc5oc(N)nc5c4)cc3n2)CC1 | < 100 nM |
